# condition-context: in 1,4-dioxane, 317.25 K
quantity-kind: solubility (mole fraction)
Number only, no unit.

Request: Report measured solubility (mole fraction); entry is `CC(=O)[C@@]12O[C@@H]1C[C@H]1[C@@H]3CCC4=CC(=O)CC[C@]4(C)[C@H]3[C@H](O)C[C@@]12C`
Response: 0.0055

###

# condition-context: in isopropanol, 300.25 K
quantity-kind: solubility (mole fraction)
Number only, no unit.

Request: Report measured solubility (mole fraction); entry is `CC(=O)[C@@]12O[C@@H]1C[C@H]1[C@@H]3CCC4=CC(=O)CC[C@]4(C)[C@H]3[C@H](O)C[C@@]12C`
Response: 0.000643

###

# condition-context: in DMSO, 331.2 K
quantity-kind: solubility (mole fraction)
Number only, no unit.

Request: Report measured solubility (mole fraction); entry is `CC(=O)[C@@]12O[C@@H]1C[C@H]1[C@@H]3CCC4=CC(=O)CC[C@]4(C)[C@H]3CC[C@@]12C`
Response: 0.0101

###

# condition-context: in n-propanol, 306.75 K
quantity-kind: solubility (mole fraction)
Number only, no unit.

Request: Report measured solubility (mole fraction); entry is `CC(=O)[C@@]12O[C@@H]1C[C@H]1[C@@H]3CCC4=CC(=O)CC[C@]4(C)[C@H]3[C@H](O)C[C@@]12C`
Response: 0.00109

###

# condition-context: in DMSO, 318.35 K
quantity-kind: solubility (mole fraction)
Number only, no unit.

Request: Report measured solubility (mole fraction); entry is `CC(=O)[C@@]12O[C@@H]1C[C@H]1[C@@H]3CCC4=CC(=O)CC[C@]4(C)[C@H]3CC[C@@]12C`
Response: 0.00657

###

# condition-context: in DMSO, 312.45 K
quantity-kind: solubility (mole fraction)
Number only, no unit.

Request: Report measured solubility (mole fraction); entry is `CC(=O)[C@@]12O[C@@H]1C[C@H]1[C@@H]3CCC4=CC(=O)CC[C@]4(C)[C@H]3CC[C@@]12C`
Response: 0.00539

###

# condition-context: in n-butanol, 309.85 K
quantity-kind: solubility (mole fraction)

Request: Report measured solubility (mole fraction); entry is `CC(=O)[C@@]12O[C@@H]1C[C@H]1[C@@H]3CCC4=CC(=O)CC[C@]4(C)[C@H]3CC[C@@]12C`
Response: 0.00624

###

# condition-context: in n-butanol, 298.75 K
quantity-kind: solubility (mole fraction)
Number only, no unit.

Request: Report measured solubility (mole fraction); entry is `CC(=O)[C@@]12O[C@@H]1C[C@H]1[C@@H]3CCC4=CC(=O)CC[C@]4(C)[C@H]3[C@H](O)C[C@@]12C`
Response: 0.000597

###

# condition-context: in 1,4-dioxane, 335.35 K
quantity-kind: solubility (mole fraction)
Number only, no unit.

Request: Report measured solubility (mole fraction); entry is `CC(=O)[C@@]12O[C@@H]1C[C@H]1[C@@H]3CCC4=CC(=O)CC[C@]4(C)[C@H]3[C@H](O)C[C@@]12C`
Response: 0.00932

###

# condition-context: in n-propanol, 340.6 K
quantity-kind: solubility (mole fraction)
Number only, no unit.

Request: Report measured solubility (mole fraction); entry is `CC(=O)[C@@]12O[C@@H]1C[C@H]1[C@@H]3CCC4=CC(=O)CC[C@]4(C)[C@H]3CC[C@@]12C`
Response: 0.0203
